# experiment_summary: Promoting excretion of 238Pu(IV) in mice by injected ligands
# Assay type: in vivo
# particulars: ligand 30 µmol kg^-1 ip at 1 h after iv ^238Pu(IV) citrate; kill at 24 h
Marks after values point to notes of the source that are not given here.
Here, each record is paired with measured percent of injected ^238Pu ± SD at 24 h, whole body data.
measured_property: percent of injected ^238Pu ± SD at 24 h, whole body

| compound | reported_value |
| --- | --- |
| Cn1ccc(C(=O)NCCN(CCNC(=O)c2ccn(C)c(=O)c2O)CCNC(=O)c2ccn(C)c(=O)c2O)c(O)c1=O [TREN-Me-3,2-HOPO] | 18 ± 2.7^d percent of injected ^238Pu |
| Cn1ccc(C(=O)NCCN(CCCN(CCNC(=O)c2ccn(C)c(=O)c2O)CCNC(=O)c2ccn(C)c(=O)c2O)CCNC(=O)c2ccn(C)c(=O)c2O)c(O)c1=O [H(3,2)-Me-3,2-HOPO] | 28 ± 4.8% of injected ^238Pu |
| Cn1ccc(C(=O)NCCCCCNC(=O)c2ccn(C)c(=O)c2O)c(O)c1=O [5-LI-Me-3,2-HOPO] | 16 ± 1.9^d percent of injected ^238Pu |
| Cn1ccc(C(=O)NCCCNC(=O)c2ccn(C)c(=O)c2O)c(O)c1=O [3-LI-Me-3,2-HOPO] | 27 ± 5.2% of injected ^238Pu |
| Cn1ccc(C(=O)NCCCCNC(=O)c2ccn(C)c(=O)c2O)c(O)c1=O [4-LI-Me-3,2-HOPO] | 17 ± 2.4^d percent of injected ^238Pu |
| Cn1ccc(C(=O)NCCOCCNC(=O)c2ccn(C)c(=O)c2O)c(O)c1=O [5-LI-O-Me-3,2-HOPO] | 15 ± 2.1^d percent of injected ^238Pu |
| Cn1ccc(C(=O)NCCN(CCNC(=O)c2ccn(C)c(=O)c2O)CCN(CCNC(=O)c2ccn(C)c(=O)c2O)CCNC(=O)c2ccn(C)c(=O)c2O)c(O)c1=O [H(2,2)-Me-3,2-HOPO] | 19 ± 2.9^d percent of injected ^238Pu |
| Cn1ccc(C(=O)NCCCN(CCCNC(=O)c2ccn(C)c(=O)c2O)CCCNC(=O)c2ccn(C)c(=O)c2O)c(O)c1=O [TRPN-Me-3,2-HOPO] | 33 ± 5.3% of injected ^238Pu |
| Cn1ccc(C(=O)NCCCCCCNC(=O)c2ccn(C)c(=O)c2O)c(O)c1=O [6-LI-Me-3,2-HOPO] | 23 ± 4.9^d percent of injected ^238Pu |
| Cn1ccc(C(=O)NCCN(CCCCN(CCNC(=O)c2ccn(C)c(=O)c2O)CCNC(=O)c2ccn(C)c(=O)c2O)CCNC(=O)c2ccn(C)c(=O)c2O)c(O)c1=O [H(4,2)-Me-3,2-HOPO] | 46 ± 8.5% of injected ^238Pu |
| Cc1c(CNC(=O)c2ccn(C)c(=O)c2O)c(C)c(CNC(=O)c2ccn(C)c(=O)c2O)c(C)c1CNC(=O)c1ccn(C)c(=O)c1O [ME-Me-3,2-HOPO] | 22 ± 8.5^d percent of injected ^238Pu |
| Cn1ccc(C(=O)NCCN(CCNC(=O)c2ccn(C)c(=O)c2O)CCN(CC(=O)O)CC(=O)O)c(O)c1=O [TREN-bis(Me-3,2-HOPO)-bis acetic acid] | 30 ± 3.6% of injected ^238Pu |
